Field: denaturant m value. Provide a value for each of the variants that follow.
B1: Subtilisin-chymotrypsin inhibitor-2A, P01053 (parent)
chain: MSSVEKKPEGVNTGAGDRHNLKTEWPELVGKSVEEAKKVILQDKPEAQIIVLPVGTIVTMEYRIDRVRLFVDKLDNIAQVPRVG

# Variants of: B1
# condition.details: Hordeum vulgare; pH 6.25; 25 °C; GdnHCl; Fluorescence; MES 50 mM; reversible: yes; structure 2CI2; whole UniProt chain shown
Answers are plain numbers, in kcal/mol/M.

[
  {
    "variant.descriptor": "D65A",
    "denaturant m value (kcal/mol/M)": 1.83
  },
  {
    "variant.descriptor": "T56V",
    "denaturant m value (kcal/mol/M)": 1.67
  },
  {
    "variant.descriptor": "Q48M M60L",
    "denaturant m value (kcal/mol/M)": 1.78
  },
  {
    "variant.descriptor": "L52A",
    "denaturant m value (kcal/mol/M)": 2.11
  },
  {
    "variant.descriptor": "E34A E35A",
    "denaturant m value (kcal/mol/M)": 2.11
  },
  {
    "variant.descriptor": "E34N",
    "denaturant m value (kcal/mol/M)": 2.01
  }
]

Below is a list of variants. For each, state its recorded denaturant m value.
1. K73N
2. F70V
3. R63A D65A
4. P53A
5. V39A
6. E27A
7. E27Q

Return:
1. 1.6
2. 2.24
3. 1.53
4. 1.79
5. 2.01
6. 1.75
7. 1.91

Below is a list of variants. For each, state its recorded denaturant m value.
1. K44A
2. L52A F70L
3. L41G
4. S32G
5. L52V F70A
6. E34Q
7. K38A

Return:
[1.57, 1.94, 1.68, 2.1, 1.94, 1.87, 1.61]

Below is a list of variants. For each, state its recorded denaturant m value.
1. I57A
2. V58A V80A
3. V58A

Return:
[1.59, 2.19, 2.14]

Below is a list of variants. For each, state its recorded denaturant m value.
1. T56A
2. T56S
3. L52V F70L
4. E35Q

Return:
1: 1.5; 2: 1.66; 3: 2.37; 4: 1.84
